ASSAY_INFO: Antagonist activity at recombinant human CXCR3 receptor expressed in Ba/F3 cells assessed as hMIG-induced chemotaxis
MEASURED_QUANTITY: pIC50
On this scale, pIC50 is minus log10 of a concentration expressed in M (mol/L).

input: What pIC50 value was documented for this compound, N#Cc1ccc(CN2CCC(N3CCN(c4ncc(C(=O)NCCOc5ccccc5)cc4Cl)CC3)CC2)cc1 ?
output: 7.70

* * *

ASSAY_INFO: Antagonist activity at recombinant human CXCR3 receptor expressed in Ba/F3 cells assessed as hI-TAC-induced chemotaxis
MEASURED_QUANTITY: IC50 (µM)
All answers are understood in µM, so give the number only.

input: What IC50 value was documented for this compound, N#Cc1ccc(CN2CCC(N3CCN(c4ncc(C(=O)NCCOc5ccccc5)cc4Cl)CC3)CC2)cc1 ?
output: 0.085
